Where these numbers come from: patent US20160333065A1

- target: T1, HLA-B8 (B*0801) (human)
- T1 construct: HLA class I on acid-stripped EBV-transformed B cells (B-LCL)
- experimental-protocol: competition vs FLRGRAC(FI)GL on stripped B-LCL, FACS
pIC50: −log10 of the molar value.
Parameter pIC50: see the listing below.

1. QMINLRRLLL [PRAME 258-267 QMINLRRLLL] : 5.78
2. INLRRLLL [PRAME 260-267 INLRRLLL] : > 6.00
3. MINLRRLL [PRAME 259-266 MINLRRLL] : > 6.00

Attention now shifts to the item below.
q: Given the entry RPRRWKLQVL [PRAME 113-122 RPRRWKLQVL] , report its measured pIC50.
a: > 6.00
